For each of the molecules below, state its melting point.
Counter-ions that a name gives are not always drawn.

Tell me the measured melting point of CCOc1cc(N)c(Cl)cc1C(=O)NCC1CN(CC2CCN(C(=O)OC(C)(C)C)CC2)CCO1 (stereo not shown) (as salt: fumarate) , please.
167 to 169 °C

Tell me the measured melting point of CCOc1cc(N)c(Br)cc1C(=O)NCC1CN(CC2CCN(C(=O)OC(C)(C)C)CC2)CCO1 (stereo not shown) (as salt: fumarate) , please.
171 to 172 °C

Tell me the measured melting point of CCOc1cc(N)c(Cl)cc1C(=O)NCC1CN(CC2CCN(C(=O)OC)CC2)CCO1 (stereo not shown) , please.
175 °C

Tell me the measured melting point of CCOc1cc(N)c(Cl)cc1C(=O)NCC1CN(CC2CCN(C(N)=O)CC2)CCO1 (stereo not shown) , please.
201 to 207 °C

Tell me the measured melting point of CCOc1cc(N)c(Cl)cc1C(=O)NC[C@H]1CN(CC2CCN(C(=O)N(C)OC)CC2)CCO1 , please.
127 to 129 °C

Tell me the measured melting point of CCOc1cc(N)c(Cl)cc1C(=O)NC[C@H]1CN(CC2CCN(C(=O)N(C)C)CC2)CCO1 , please.
157 to 158 °C

Tell me the measured melting point of CCOc1cc(N)c(Cl)cc1C(=O)NC[C@H]1CN(CC2CCN(C(=O)N3CCC3)CC2)CCO1 , please.
166 to 168 °C

###

tested on: Male Slc-ddy mice; assay: Mouse defecation assay; assay type: in vivo; set-up: key: −: No Effect; +: Moderately Improved (p<0.05); ++: Significantly Improved (p<0.01); settings: 3 mg/kg orally; stool weight 30, 60 and 120 minutes after administration; Dunnett assay vs control
assay-readout: Effect

mol=COc1cc(N)c(Cl)cc1C(=O)NC[C@H]1CN(CC2CCN(C(=O)c3cocn3)CC2)CCO1 assay_readout=Effect result=++
mol=CCc1ccc(C(=O)N2CCC(CN3CCO[C@@H](CNC(=O)c4cc(Cl)c(N)cc4OC)C3)CC2)cc1 assay_readout=Effect result=+
mol=COc1ccc(C(=O)N2CCC(CN3CCO[C@@H](CNC(=O)c4cc(Cl)c(N)cc4OC)C3)CC2)cc1 assay_readout=Effect result=++
mol=COc1cc(N)c(Cl)cc1C(=O)NC[C@H]1CN(CC2CCN(C(=O)Nc3ccccc3)CC2)CCO1 assay_readout=Effect result=−

###

system: Male Slc-ddy mice; assay: Mouse defecation assay; format: in vivo; design: key: −: No Effect; +: Moderately Improved (p<0.05); ++: Significantly Improved (p<0.01); details: 3 mg/kg orally; stool weight 30, 60 and 120 minutes after administration; Dunnett assay vs control
Structures can show the parent of a compound that is named as a salt.
assay-readout: Effect

molecule="COC(=O)N1CCC(CN2CCOC(CNC(=O)c3cc(Cl)c(N)c4c3OCC4)C2)CC1 (stereo not shown) [Example 138]" assay_readout=Effect result=++
molecule="COc1cc(N)c(Cl)cc1C(=O)NC[C@H]1CN(CC2CCN(C(=O)CO)CC2)CCO1 [Example 198, hydrochloride]" assay_readout=Effect result=++
molecule="CCOc1cc(N)c(Cl)cc1C(=O)NC[C@H]1CN(CC2CCN(C(=O)CO)CC2)CCO1 [Example 197]" assay_readout=Effect result=++
molecule="COc1cc(N)c(Cl)cc1C(=O)NC[C@H]1CN(CC2CCN(C(=O)Nc3cccc(C(F)(F)F)c3)CC2)CCO1 [Example 54]" assay_readout=Effect result=+
molecule="COc1cc(N)c(Cl)cc1C(=O)NC[C@H]1CN(CC2CCN(C(=O)[C@H](C)OC)CC2)CCO1 [Example 225]" assay_readout=Effect result=++
molecule="COc1cc(N)c(Cl)cc1C(=O)NC[C@H]1CN(CC2CCN(C(=O)c3nc[nH]n3)CC2)CCO1 [Example 229]" assay_readout=Effect result=++

Moving on to the next molecule.
Tell me the measured Effect of COc1cc(N)c(Cl)cc1C(=O)NC[C@H]1CN(CC2CCN(C(=O)N3CCCC3)CC2)CCO1 [Example 89] , please.
+

###

system: Male Slc-ddy mice; experiment: Mouse defecation assay; type: in vivo; set-up: key: −: No Effect; +: Moderately Improved (p<0.05); ++: Significantly Improved (p<0.01); details: 3 mg/kg orally; stool weight 30, 60 and 120 minutes after administration; Dunnett assay vs control
assay-readout: Effect

mol=COc1cc(N)c(Cl)cc1C(=O)NC[C@H]1CN(CC2CCN(C(=O)c3ccc(Cl)cc3)CC2)CCO1 result=+
mol=COc1cc(N)c(Cl)cc1C(=O)NC[C@H]1CN(CC2CCN(C(C)=O)CC2)CCO1 result=++
mol=COc1cc(N)c(Cl)cc1C(=O)NC[C@H]1CN(CC2CCN(C(=O)CNC(=O)c3ccccc3)CC2)CCO1 result=++

###

molecular target: 5-HT4 receptor (Cavia porcellus, UniProt O70528); construct: the mixture was suspended to give receptor membrane preparations; from tissue; host or cells: guinea pig (Slc-Hartley) brain striatum membranes; experiment: Serotonin 4 (5-HT4) receptor binding assay; parameters: species or system guinea pig; conditions: inhibition of specific binding of 0.1 nM [3H]-GR113808; guinea pig striatum membrane preparations; 37° C., 30 minutes; read-out: IC50
Sequence (O70528 whole entry): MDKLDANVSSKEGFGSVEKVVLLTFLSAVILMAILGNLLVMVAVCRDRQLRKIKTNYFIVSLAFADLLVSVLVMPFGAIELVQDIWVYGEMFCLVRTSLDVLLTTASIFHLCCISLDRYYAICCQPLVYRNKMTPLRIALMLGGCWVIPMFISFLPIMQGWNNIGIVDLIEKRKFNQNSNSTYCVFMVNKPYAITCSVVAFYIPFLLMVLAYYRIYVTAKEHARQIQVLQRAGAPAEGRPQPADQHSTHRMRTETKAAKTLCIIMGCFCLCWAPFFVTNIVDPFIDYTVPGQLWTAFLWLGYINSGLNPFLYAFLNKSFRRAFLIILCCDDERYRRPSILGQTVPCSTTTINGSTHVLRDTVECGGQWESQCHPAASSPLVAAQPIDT
assay-readout: pIC50
The scale used: pIC50 is minus the common logarithm of the concentration in molar units.

Return pIC50 measured with 5-HT4 receptor (Cavia porcellus, UniProt O70528) given this compound: COc1ccc(CNC(=O)N2CCC(CN3CCO[C@@H](CNC(=O)c4cc(Cl)c(N)cc4OC)C3)CC2)cc1 [Example 61]
8.43

Return pIC50 measured with 5-HT4 receptor (Cavia porcellus, UniProt O70528) given this compound: COc1cc(N)c(Cl)cc1C(=O)NC[C@H]1CN(CC2CCN(C(=O)NCc3ccc(Cl)cc3Cl)CC2)CCO1 [Example 62]
8.60

Return pIC50 measured with 5-HT4 receptor (Cavia porcellus, UniProt O70528) given this compound: CCOc1cc(N)c(Cl)cc1C(=O)NCC1CN(CC2CCN(C(=O)c3cccc(F)c3)CC2)CCO1 (stereo not drawn) [Example 114]
8.65

###

test system: Male Slc-ddy mice; test: Mouse defecation assay; type: in vivo; set-up: key: −: No Effect; +: Moderately Improved (p<0.05); ++: Significantly Improved (p<0.01); details: 3 mg/kg orally; stool weight 30, 60 and 120 minutes after administration; Dunnett assay vs control
assay-readout: Effect

molecule="Nc1c(Cl)cc(C(=O)NC[C@H]2CN(CC3CCN(C(=O)C4CCOC4)CC3)CCO2)c2c1CCO2 (some centres unmarked)" result=++
molecule=COCCC(=O)N1CCC(CN2CCO[C@@H](CNC(=O)c3cc(Cl)c(N)cc3OC)C2)CC1 result=++
molecule=COCC(=O)N1CCC(CN2CCO[C@@H](CNC(=O)c3cc(Cl)c(N)cc3OC)C2)CC1 result=++
molecule=COc1cc(N)c(Cl)cc1C(=O)NC[C@H]1CN(CC2CCN(C(=O)c3ccccc3OC(C)=O)CC2)CCO1 result=++
molecule=CCOc1cc(N)c(Cl)cc1C(=O)NC[C@H]1CN(CC2CCN(C(=O)N(C)C)CC2)CCO1 result=++

Return Effect measured with Male Slc-ddy mice given this molecule: COc1cc(N)c(Cl)cc1C(=O)NCC1CN(CC2CCN(C(=O)n3ccnc3)CC2)CCO1 (centres unmarked)
++

Return Effect measured with Male Slc-ddy mice given this molecule: COc1cc(N)c(Cl)cc1C(=O)NC[C@H]1CN(CC2CCN(S(=O)(=O)N(C)C)CC2)CCO1.O=C(O)/C=C/C(=O)O
+

Return Effect measured with Male Slc-ddy mice given this molecule: COc1cc(N)c(Cl)cc1C(=O)N[C@H]1CCN(CCCOc2ccc(F)cc2)C[C@H]1OC (relative stereo) [Cisapride, reference compound]
−
